# experimentalSystem: T1, VEGFR-1-Fc (UniProt P17948 27-338)
# T1 construct: domain: first three Ig domains; expressed in Drosophila S2 cells, purified on Protein A sepharose; also called VEGFR-1-Fc fusion protein; not shown: Fc fragment from the Signal-pIgPlus vector
# T1 sequence (P17948 27-338): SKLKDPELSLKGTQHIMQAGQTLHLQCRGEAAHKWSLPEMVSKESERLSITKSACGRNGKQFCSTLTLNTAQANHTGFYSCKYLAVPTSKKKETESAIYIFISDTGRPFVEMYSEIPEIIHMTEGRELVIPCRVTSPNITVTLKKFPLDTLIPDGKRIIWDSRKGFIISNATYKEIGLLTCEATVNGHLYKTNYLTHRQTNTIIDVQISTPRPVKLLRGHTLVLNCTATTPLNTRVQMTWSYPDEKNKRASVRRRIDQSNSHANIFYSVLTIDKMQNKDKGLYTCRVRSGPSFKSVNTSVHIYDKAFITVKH
# testMethodNotes: receptor-Fc IP
property: binding result

43-16 (ligand) AHYNTEILKFMDVYQRSYCHPREVCIDVGKEYPDEIEYIFKPPCVSVYRCGGCCNSEGLQCMNTSTSYLSKTLFEITVPLSQGPKPVTISFANHTSCRCMSKLD :: no binding
31-2 (ligand) GQNHHEVVKSIDNEWRKTQCMPIETLVDIFQEYPDEIEYIFKPSCVPLMRCGGCCNDEGLECVPTEESNITMQIMRIKPHQGQHIGEMSFANHTSCRCMSKLD :: no binding
21-15 (ligand) AHYNTEILKSIDNEWRKTQCMPREVCIDVGKEYPDEIEYIFKPSCVPLMRCGGCCNSEGLQCVPTEESNITMQIMRITVPLSQGPKPVTISFANHTSCRCMSKLD :: no binding
14-1 (ligand) GQNHHEVVKFMDVYQRSYCHPIETLVDIFQEFGVATNTFFKPSCVPLMRCGGCCNDEGLECVPTEESNITMQIMRIKPHQGQHIGEMSFLQHNKCECRPKKD :: binds
53-3 (ligand, clone entry) AHYNTEILKSIDNEWRKTQCMPIETLVDIFQEYPDEIEYIFKPPCVSVYRCGGCCNSEGLQCVPTEESNITMQIMRIKPHQGQHIGEMSFLQHNKCECRPKKDLV :: binds
43-15 (ligand) AHYNTEILKFMDVYQRSYCHPREVCIDVGKEYPDEIEYIFKPPCVSVYRCGGCCNSEGLQCVPTEESNITMQIMRITVPLSQGPKPVTISFANHTSCRCMSKLD :: no binding

Let's switch to this binder now.
[Q] Tell me the measured binding result of 44-8 (ligand) AHYNTEILKFMDVYQRSYCHPREVCIDVGKEFGVATNTFFKPSCVPLMRCGGCCNSEGLQCMNTSTSYLSKTLFEIKPHQGQHIGEMSFANHTSCRCMSKLD , please.
[A] no binding
